Origin of measurements: patent US20190175609A1

Target: T1, PD-1 on PD-1-expressing 300.19 cells (UniProt Q15116 25-288, limits assumed)
T1 construct: whole, on cells
T1 sequence (Q15116 25-288 limits assumed): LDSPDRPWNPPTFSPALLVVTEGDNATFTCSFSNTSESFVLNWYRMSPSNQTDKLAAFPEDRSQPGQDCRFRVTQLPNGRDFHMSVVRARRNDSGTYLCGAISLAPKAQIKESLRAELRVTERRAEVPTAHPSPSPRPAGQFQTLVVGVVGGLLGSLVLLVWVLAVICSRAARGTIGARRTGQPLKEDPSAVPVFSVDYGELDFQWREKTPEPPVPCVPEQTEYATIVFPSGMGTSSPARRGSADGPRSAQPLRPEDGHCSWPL
Experiment: rank among the 16 humanized clones in competition binding against labeled murine mAb BAP049, 2nd exp. (FIGURE 6B)
QUANTITY MEASURED: Competition Binding 2nd exp.

[[record]]
binder = "BAP049-hum01 (antibody, human IgG4 S228P, kappa, V domains shown, Humanized mAb) VH: EVQLVQSGAEVKKPGESLRISCKGSGYTFTTYWMHWVRQATGQGLEWMGNIYPGTGGSNFDEKFKNRVTITADKSTSTAYMELSSLRSEDTAVYYCTRWTTGTGAYWGQGTTVTVSS VL: EIVLTQSPATLSLSPGERATLSCKSSQSLLDSGNQKNFLTWYQQKPGQAPRLLIYWASTRESGVPSRFSGSGSGTEFTLTISSLQPDDFATYYCQNDYSYPYTFGQGTKVEIKR"
measurement = 2

[[record]]
binder = "BAP049-hum12 (antibody, human IgG4 S228P, kappa, V domains shown, also called Clone No. 12) VH: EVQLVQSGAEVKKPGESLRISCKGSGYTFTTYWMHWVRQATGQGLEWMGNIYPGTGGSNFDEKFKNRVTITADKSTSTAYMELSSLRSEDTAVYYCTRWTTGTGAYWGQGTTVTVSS VL: DIQMTQSPSSLSASVGDRVTITCKSSQSLLDSGNQKNFLTWYLQKPGQSPQLLIYWASTRESGVPSRFSGSGSGTDFTFTISSLEAEDAATYYCQNDYSYPYTFGQGTKVEIKR"
measurement = 16

[[record]]
binder = "BAP049-hum04 (antibody, human IgG4 S228P, kappa, V domains shown, also called Clone No. 4) VH: EVQLVQSGAEVKKPGESLRISCKGSGYTFTTYWMHWIRQSPSRGLEWLGNIYPGTGGSNFDEKFKNRFTISRDNSKNTLYLQMNSLRAEDTAVYYCTRWTTGTGAYWGQGTTVTVSS VL: EIVLTQSPATLSLSPGERATLSCKSSQSLLDSGNQKNFLTWYQQKPGKAPKLLIYWASTRESGVPSRFSGSGSGTDFTFTISSLQPEDIATYYCQNDYSYPYTFGQGTKVEIKR"
measurement = 15

